- Tested on: K4 kissing-loop RNA reporter
- procedureSummary: apparent KD of K4 kissing-loop reporter; higher = weaker reporter binding
- particulars: Eterna round: R107; input ligand: theophylline 20 uM
The sequences listed here are annotated with their apparent KD of K4 kissing-loop reporter.

Use the examples below as a reference point.
>>> result("AGUGCACUGUCAGGAUAUAUACAGUGAUGUUGUGUAUGUCAGCAAGUCAAAGACUUGCUGUUCUGUGUAGAAGGGACUGUGUACA [Omei KL FMN B Exc A v3]")
"467 nM"
>>> result("GGAUAGGACAGAGGAUAUGGUAGUGAUGUUACCACGAGACAAAGUCUCGAAAAGCUACAAAGUAGCCCAGAAGGCUGUCCUAUCG [FmnBX 25 #SwitchBubble #StaticStem #Palindromic]")
"114 nM"
>>> result("AAACAUCACUGGGAGUGAUGUUCUCAGUGACGAGGACCGGUACGGCCGCCACUCGCGAGAGAUAUAAAUGAGUAAUGACAUCAUU [Excl Tryptophan A V2]")
"258 nM"
>>> result("AGUGCCUGCCUUAGCCUUCCCAUCAACUUCCGAGGACCGGUACGGCCGCCACUCGGCCAUCGGGCUAGUGAUGUUACCUGGUGGA [theeternabot_sameState_KL_Trp_A_50]")
"320 nM"

Any idea what apparent KD of K4 kissing-loop reporter was measured for AAUUCAGUGAUGUUGGAAGGCAAGCGGGAUACCAGCGGAGAAUAACGCCCUUGGCAGCCCAUAUAUCCCAAAUAGAUAAUAGUUC [Same State - Theophylline A (Freestyle 4)] ? 327 nM

* * *

- Tested on: MS2 coat protein
- procedureSummary: apparent KD of MS2 coat protein; higher = weaker reporter binding
- particulars: Eterna round: R107; input ligand: none
Quick list: apparent KD of MS2 coat protein per entry.
Kindly write the number and append the unit.

Field: example entries. Status: answers known.
>>> result("UCGGGCAGAGCGGCCGCCACUGUUUGGCGUGCGGAUGACGGAACAUGAGGAUCACCCAUGUUGUUUAGGACCGGGCUUGCGGCGU [ipimullin]")
"12.7 nM"
>>> result("UCAUGACAUGGGAAUAAAUAAGAAGGCGAAGGAGCGUGAAGAUUCACAGGUAGGUCGCGCAAAAUACAUGAGGAUCACCCAUGUU [JR_Nu_ExcArginiA_Sub032]")
"30.4 nM"

Entry AGUCUUAGUGGAAGGAGCGCAGUCAUAACAUGAGGAUCACCCAUGUCGAGGUGAGGGUCAUUGCAGGUAGGUCGCCAUAAUAGGA [#16 Same State - Arginine B] has what apparent KD of MS2 coat protein? 156 nM

I am curious: what apparent KD of MS2 coat protein value has been reported for GCUAGUGGCAGAAGGAGCGGCAUACAUGCAAGUGACAUGAGGAUCACCCAUGUAAGGGAAUGCCAGGUAGGUCGCUGCCACUAGC [EAB NP+V+V2 #2 +-Same Structure] ? 61.5 nM

May I ask what apparent KD of MS2 coat protein has been recorded for CGCAAGCAACAUGAGGAUCACCCAUGUGAAGGAGCGCCGAAUAAGGCAGGUAGGUCGCACAUGAAUAAAUCAUGUAAAAGCUUGC [MAT - Exclusion Arginine A - Mod of Eli - D22] ? 62.7 nM

Value lookup for apparent KD of MS2 coat protein; key = UGAGUUAGACAAAAGUCUAGCUCUGGUGAAGGAGCGUCCGAAAGGACAGGUAGGUCGCACCACAUGAGCAUCAGCCAUGUUCCUU [ArgAS 23 #OpenEnded #AlternativeMS2] 17.3 nM

Report apparent KD of MS2 coat protein for AGCUUGUAGUCGGCCGCCACUAAUAGGGAUCCUAUCGAGGCGGGUAACAUGAGGAUCACCCAUGUUAGGACCGGGACAGCGAGGA [Cetian] please. 16.6 nM

# lookup: apparent KD of MS2 coat protein of AUCAUGGCCAUCGAUACCAGCUACAUGAGGAUCACCCAUGUAAACGGCGCGGUGAGAUGUAGCCCUUGGCAGCGAAGGGUCAAGG [Beonrexe] 16.8 nM

Query (sequence): AACGUAUACAGAAGGAGCGUGAAUUAUAUUACUCAUUCAUAUACAUGAGGAUCACCCAUGUCACAGGUAGGUCGCUGUAUUCGUA [JR_ExcArginiB_Sub020] ; field requested: apparent KD of MS2 coat protein 82.2 nM

Name the reported apparent KD of MS2 coat protein value associated with the sequence AUAACAUGAGGAUCACCCAUGUAAGCUGAAGGAGCGCUGGAAACAGCAGGUAGGUCGCAGCGGCGACCUUCAUGGGUAAGGUCGC [(M1)-(M2)-(Arg1)-(Arg2)-(A)'-(M)'-(A)''_Design4] 32.8 nM

I have this sequence here, AUUAAAGUUUAUAAGGAAAUUGAAACAGAAGGAGCGUGAGUAAUCACAGGUAGGUCGCUGGUAGUACAUGAGGAUCACCCAUGUU [JR_Nu_SSArginiA_Sub020] , and I need its recorded apparent KD of MS2 coat protein. 20.1 nM

* * *

- Test system: MS2 coat protein
- procedureSummary: apparent KD of MS2 coat protein, switch ON state; designed switch direction (-1 OFF switch, 1 ON switch): 1; higher = weaker reporter binding
- particulars: FMN input: 0 or 200 uM; Eterna round: R93 (includes R88 designs)
recordedEndpoint: apparent KD of MS2 coat protein (nM)
Give just the number in nM; leave the unit off.

// worked examples, apparent KD of MS2 coat protein included
>>> quantitativeresult("CCCAAUGCAACGAAGGAUAUCCGUCAUGCUACAUGAGGAUCACCCAUGUACUGGCAGCGCAAGGCGGAGAAGGUCGGGUGCUGUG [Leusesbe]")
12
>>> quantitativeresult("AACUAACAUGAGGAUCACCCAUGUAAUCAAACAUGAGGAUAUAUAACACAUCAUCAACAGAUAGAAGGCAUAAAUA [JR_SS001_Sub1203]")
80.4
>>> quantitativeresult("AAAAGACAUGAGGAUCACCCAUGUGAAAACGUAGGAGGAUAUGUCUGGAAACCAGACUGGACAGAAGGCCUGUGUC [SS1 - 32]")
26.7

# apparent KD of MS2 coat protein lookup, item AAAUAAAUGACUCAGGAUAUAUCAUAGAAAACAUGAGGAUCACCCAUGUAAUAAUAACAUGUUUGGUAGAAGGGAGUCAAUAAAU [LROPPY Same State 2 - v04_deltaG=1.25] 31.1

What value of measured apparent KD of MS2 coat protein is listed for AGGAAACAUGAGGAUCACCCAUGUAUAAAAUAGGGAGGAUAUACUAAGACGAAAGUCAUAGUAGAAGGUCCAAAAA [76%, Meechl, 13] ? 17.9

Record request: apparent KD of MS2 coat protein value, item AAAAAAGAUCUAGAGGAUAUCCGAGUGGUAACAUGAGGAUCACCCAUGUGAAGAAAGGAACAUGAGGAGAAGGCUAGAUCAAAAA [JL Nando Mod 1] 7.87

* * *

- System: K4 kissing-loop RNA reporter;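 further: bound reporter read as fluorescence of individual clusters on recovered sequencing chips by microscopy, with normalized cluster intensities fitted with a binding model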
- procedureSummary: apparent KD of K4 kissing-loop reporter; higher = weaker reporter binding
- particulars: Eterna round: R107; input ligand: theophylline 20 uM
Classification field: true (1) = apparent KD of K4 kissing-loop reporter at or over 0.5 µM; false (0) = apparent KD of K4 kissing-loop reporter under 0.5 µM.

>>> assignedclass("GGAUAGGACAGAGGAUAUCCUGAGGCAAGAAACUUGUCUCAUAAAGGAUGAAUCCUAGUGAUGUUAGGAGAAGGCUGUCCUAUCG [FmnBX 15 - #SwitchBubble #StaticStem #Palindromic]")
"false (0)"
>>> assignedclass("GGUCCGGGCUCGGCCGCCACUCCCUCCUGCCGGAAGGUGGGAUACCGAGUGAUGUUCGGUUGGAGGAGGACCGGGAGCCCGGACC [#2 Exclusion - Tryptophan B Attempt #13 (HarryS)]")
"false (0)"
>>> assignedclass("CCCGUGGGUUCGAGAGGGCUUGUGGGAAGUAAGGAUAUUUAGGGAGAAAGAAGGUACUAUAGAAUAUAGUGAUGUUAUAUAUGGG [#07 K4 FMN A Same State]")
"false (0)"
>>> assignedclass("GCAGUGAUGUUGCUGAUGUGCAGUGGUAGUCGAGGACCGGUACGGCCGCCACUCGGUGAGAAUUUGCUAAUACAUCGAUAAGUGA [XVII]")
"true (1)"
>>> assignedclass("GGUUUAUAGGAGGAUACCAGUACGGAUAAAGUACGUUAAUAGUAGAGUGAUGUUCUAAAGUACCCUUGGCAGCUUAGAGUAAGUU [ExTheophylB.K]")
"false (0)"
>>> assignedclass("GAACCAGAGGUUGCUGCGGGUUCCAGAGAUACCAGCCGUAUUGAAGGCCCUUGGCAGCUCGAGUGAUGUUCGAGCCGCCUCUGGC [Antius]")
"false (0)"

apparent KD of K4 kissing-loop reporter >= 0.5 µM for `GCCUGGGCACGAAGGAGCGCCGUGACAGGUUACUGCAUUGGGCAGUGAUGUUGCUCAAUCUGGCAGGUAGGUCGCGUGCCCAGGC` ? false (0)

Has GGUGCUGUCUGUGCCGCCCUCCUCGUUCCUCGAGGACCGGUACGGCCGCCACUCGAGUGAUGUUUGGGUAGCGAUCCCUGCUAGC [Bdazzled - #16 Exc. Tryptophan A] a recorded apparent KD of K4 kissing-loop reporter greater than or equal to 0.5 µM? true (1)

State whether the measured apparent KD of K4 kissing-loop reporter reaches 0.5 µM, counting equality as reaching it, for GCGAACAUUCGCAGUGAUGUUGCGACGGAAGGAGCGCGUGAAAACGCAGGUAGGUCGCCGACAAAAUUAAUUUUAAUGUGUUCGC [Arginine A K4 27] false (0)

Given the entry UCGGACCCUGGAGGAUAUGAGUCGAGUGAUGUUUGGCGGUCCAUGCCGGUGCGGCGUUAUGCCCUUUUAGAAGGCCAGGGUCCGA [#2 Exclusion - FMN B Attempt #13 (HarryS)] , answer whether its apparent KD of K4 kissing-loop reporter meets or surpasses 0.5 µM. false (0)

Does apparent KD of K4 kissing-loop reporter meet or surpass 0.5 µM for `GCCGUACGCAUGGAUACCAGUCUUAGAGUGAUGUUCUAUACGAUUGCGCCUGGAUCAAUGGACCCUUGGCAGCCAUGCGUACGGC` ? false (0)
